# Test system: Escherichia coli (ECO) isolates
# assayExplanation: MIC of compounds alone and combined with antibacterials, broth microdilution (CLSI)
# Format: cell-based
# assaySetup: ECO UFR209; AF1 @ 4 μg/mL
parameterMeasured: MIC ATB in combination

1) C=CC1=C(C(=O)O)N2C(=O)[C@@H](NC(=O)/C(=N\O)c3csc(N)n3)[C@H]2SC1 <=0.25 μg/mL
2) COCC1=C(C(=O)O)N2C(=O)[C@@H](NC(=O)/C(=N\OC)c3csc(N)n3)[C@H]2SC1 <=0.25 μg/mL
3) CC1(C)S[C@@H]2[C@H](NC(=O)[C@H](N)c3ccc(O)cc3)C(=O)N2[C@H]1C(=O)O 4 mg/L
4) CC(C)(O/N=C(\C(=O)N[C@@H]1C(=O)N2C(C(=O)[O-])=C(C[n+]3ccccc3)CS[C@H]12)c1csc(N)n1)C(=O)O <=0.25 μg/mL
5) CO/N=C(\C(=O)N[C@@H]1C(=O)N2C(C(=O)O)=C(COC(N)=O)CS[C@H]12)c1ccco1 4 mg/L

* * *

We begin with a simple list: items and their reported MIC ATB in combination.
# Tested on: Klebsiella pneumoniae (KPN) isolates
# assayExplanation: MIC of compounds alone and combined with antibacterials, broth microdilution (CLSI)
# Assay type: cell-based
# assaySetup: KPN UFR78; AF1 @ 4 μg/mL
parameterMeasured: MIC ATB in combination (µg/mL)

compound	targetSystem	unitAnnotation	valueReported
C=CC1=C(C(=O)O)N2C(=O)[C@@H](NC(=O)/C(=N\OCC(=O)O)c3csc(N)n3)[C@H]2SC1 [FIX, Cefixime]	Klebsiella pneumoniae (KPN) isolates	µg/mL	128
COCC1=C(C(=O)O)N2C(=O)[C@@H](NC(=O)/C(=N\OC)c3csc(N)n3)[C@H]2SC1 [POD, Cefpodoxime]	Klebsiella pneumoniae (KPN) isolates	µg/mL	128
C=CC1=C(C(=O)O)N2C(=O)[C@@H](NC(=O)/C(=N\O)c3csc(N)n3)[C@H]2SC1 [CDR, Cefdinir]	Klebsiella pneumoniae (KPN) isolates	µg/mL	128

* * *

# System: Serratia marcescens (SMA) isolates
# assayExplanation: MIC of compounds alone and combined with antibacterials, broth microdilution (CLSI)
# Format: cell-based
# assaySetup: Serratia marcescens, strain SMA UFR30 (OXA-405); ATB alone; read-out: MIC
parameterMeasured: MIC (µg/mL)

1. CC(C)(O/N=C(\C(=O)N[C@@H]1C(=O)N2C(C(=O)[O-])=C(C[n+]3ccccc3)CS[C@H]12)c1csc(N)n1)C(=O)O 8
2. C=CC1=C(C(=O)O)N2C(=O)[C@@H](NC(=O)/C(=N\OCC(=O)O)c3csc(N)n3)[C@H]2SC1 1

* * *

# Tested on: Proteus mirabilis (PMI) isolates
# assayExplanation: microbe, parasite or virus in culture
# Format: cell-based
# assaySetup: PMI UFR126; AF1 @ 4 μg/mL
parameterMeasured: MIC ATB in combination

1. CC(C)(O/N=C(\C(=O)N[C@@H]1C(=O)N2C(C(=O)[O-])=C(C[n+]3ccccc3)CS[C@H]12)c1csc(N)n1)C(=O)O <=0.25 μg/mL
2. C=CC1=C(C(=O)O)N2C(=O)[C@@H](NC(=O)/C(=N\O)c3csc(N)n3)[C@H]2SC1 <=0.25 μg/mL
3. COCC1=C(C(=O)O)N2C(=O)[C@@H](NC(=O)/C(=N\OC)c3csc(N)n3)[C@H]2SC1 <=0.25 μg/mL
